Molecular target: HLA-DR4 (DRB1*0401) (human)
Test: cell-based or functional assay
Measurement label: T-cell proliferation of splenocytes of Aβ-immunized DR4 mice, SI at 10 µg/ml (SI)

>>> number("KLVFFAEDVGSNKGA [Aβ16-30 peptide]")
5.9
>>> number("LVFFAEDVGSNKGAI [Aβ17-31 peptide]")
6.1
>>> number("QKLVFFAEDVGSNKGAIIGLMVGGVVIA [Aβ15-42 peptide]")
3.7
>>> number("VFFAEDVGSNKGAII [Aβ18-32 peptide]")
9.2
